- Test system: KM12 colon
- Experiment: NCI tumour cell line growth inhibition, 48 h
# maps each entry to its TGI
Report as a plain number; the unit µM is understood.

>  <Compound>
C=C1C(=O)[C@@]23CC[C@@H]4[C@@]5(C)CCC[C@@]4(OC5=O)C2(C)CC[C@]1(OC)C3 (stereo not given in full)

>  <TGI [µM]>
6.85

$$$$

// next item, TGI requested
Exercise: Look up and report measured TGI for this entry: "CCC[CH2][Sn]1([CH2]CCC)[O]CC(c2ccccn2)C[O]1"
Key: 59.4

###

- Test system: UACC-62 melanoma
- Experiment: NCI tumour cell line growth inhibition, 48 h
Assay readout: TGI

>  <Compound>
C[Si](C)(C)/N=C1\N2C(=NC1(C(F)(F)F)C(F)(F)F)Sc1ccccc12

>  <TGI>
> 50 µM

$$$$

Exercise: Look up and state reported TGI for CCOC(=O)C(CS)NC(=O)CCCCCCCC(=O)O (centres undefined)
Key: > 100 µM

Exercise: Give the reported value of TGI for this record: "O=C1OC(c2ccc(O)c(F)c2)(c2ccc(O)c(F)c2)c2cccc3cccc1c23"
Key: > 25 µM
